B1: SFRS1 (parent)
chain: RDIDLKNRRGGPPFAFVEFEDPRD

variants of: B1; assay: protein stability index of a GFP-peptide fusion (GPS, HEK-293T) (PSI 1-6); higher = more stable; conditions: c terminus: a fixed tail appended;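 further: lentivirally expressed fusions sorted by FACS into six bins by GFP to DsRed ratio, PSI derived from sequencing read proportions per bin multiplied by bin number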
Would you kindly list protein stability index for each of these variants?

Completed entries (count: 4):
F16W; 3.97
K6V; 4.09
D24A; 3.74
P12I; 3.13

// next item, protein stability index requested
Query string: For the variant `R8D` , what protein stability index is on record?
Result string: 4.42
